Listed below: Selectivity index: fold more toxic against HepG2 than VERO cells values for each entry.
# Test system: HepG2 cell line
# assay_method_text: MTT cytotoxicity assay, HepG2
# Assay type: cell-based
# experimental_conditions: VERO IC50 / HepG2 IC50
Return type: number; implicit unit fold.

Past entries and their recorded results:
{"record_smiles": "NNC(=O)c1ccc(NC(=O)Cn2c(=O)c3cc(I)ccc3n(Cc3ccccc3)c2=O)cc1", "experimental_target": "HepG2 cell line", "uom": "fold", "measured_result": 5.49}
{"record_smiles": "O=C(Cn1c(=O)c2cc(I)ccc2n(Cc2ccccc2)c1=O)Nc1ccc(-c2nnc(S)o2)cc1", "experimental_target": "HepG2 cell line", "uom": "fold", "measured_result": 6.69}
{"record_smiles": "CNC(=O)c1ccc(NC(=O)Cn2c(=O)c3cc(I)ccc3n(Cc3ccccc3)c2=O)cc1", "experimental_target": "HepG2 cell line", "uom": "fold", "measured_result": 5.86}

Proceeding to the next molecule to report its Selectivity index: fold more toxic against HepG2 than VERO cells.
Give Selectivity index: fold more toxic against HepG2 than VERO cells only, for `Cc1cc(C)n(-c2ccc(NC(=O)Cn3c(=O)c4cc(I)ccc4n(Cc4ccccc4)c3=O)cc2)n1` , using HepG2 cell line data.
8.67

====

Listed below: pIC50 values for each entry.
# experimental_target: EGFR^T790M (Homo sapiens, UniProt P00533, T790M)
# Sequence (P00533 25-1210 T790M): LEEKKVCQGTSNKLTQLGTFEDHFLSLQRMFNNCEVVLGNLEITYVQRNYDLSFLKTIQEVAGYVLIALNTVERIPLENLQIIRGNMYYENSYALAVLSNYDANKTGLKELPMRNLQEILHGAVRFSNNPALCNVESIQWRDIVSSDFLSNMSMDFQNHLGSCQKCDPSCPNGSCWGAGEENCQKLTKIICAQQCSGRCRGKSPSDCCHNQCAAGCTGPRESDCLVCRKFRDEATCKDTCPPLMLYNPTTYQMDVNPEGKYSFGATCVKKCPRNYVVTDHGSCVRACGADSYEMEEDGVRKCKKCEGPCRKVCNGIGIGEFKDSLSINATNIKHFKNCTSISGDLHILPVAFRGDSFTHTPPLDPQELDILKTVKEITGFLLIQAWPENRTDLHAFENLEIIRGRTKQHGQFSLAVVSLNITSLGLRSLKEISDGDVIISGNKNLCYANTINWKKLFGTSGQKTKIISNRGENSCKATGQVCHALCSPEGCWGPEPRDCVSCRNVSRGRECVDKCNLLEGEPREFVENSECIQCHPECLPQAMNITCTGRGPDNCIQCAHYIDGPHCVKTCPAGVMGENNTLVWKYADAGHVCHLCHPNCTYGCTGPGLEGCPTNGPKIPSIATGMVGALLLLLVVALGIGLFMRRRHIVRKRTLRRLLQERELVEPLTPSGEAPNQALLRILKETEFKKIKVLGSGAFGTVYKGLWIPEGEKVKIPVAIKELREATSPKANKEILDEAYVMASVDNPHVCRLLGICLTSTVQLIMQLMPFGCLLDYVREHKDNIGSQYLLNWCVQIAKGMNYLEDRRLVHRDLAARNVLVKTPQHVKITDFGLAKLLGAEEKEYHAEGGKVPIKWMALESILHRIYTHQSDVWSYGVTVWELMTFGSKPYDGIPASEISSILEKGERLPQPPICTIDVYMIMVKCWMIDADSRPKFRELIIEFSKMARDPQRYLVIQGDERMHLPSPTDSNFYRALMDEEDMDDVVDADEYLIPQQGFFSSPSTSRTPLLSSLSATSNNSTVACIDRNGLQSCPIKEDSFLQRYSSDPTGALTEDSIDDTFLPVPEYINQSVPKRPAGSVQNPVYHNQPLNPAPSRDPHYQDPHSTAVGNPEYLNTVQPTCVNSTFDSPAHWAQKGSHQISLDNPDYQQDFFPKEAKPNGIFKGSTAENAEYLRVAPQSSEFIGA
# assay_method_text: In vitro EGFR^T790M kinase inhibitory assay
# experimental_conditions: HTRF kinase assay, mean ± SD of three separate experiments
As a rule, pIC50 stands for the negative log10 of the concentration, concentration in M.

Past entries and their recorded results:
{"molecule": "C=CCn1c(=O)n(CC(=O)Nc2ccc(C(=O)NC)cc2)c(=O)c2cc(I)ccc21", "measured_result": 5.79}
{"molecule": "C=CCn1c(=O)n(CC(=O)Nc2ccc(C(=O)NCC)cc2)c(=O)c2cc(I)ccc21", "measured_result": 5.88}
{"molecule": "CCOC(=O)c1ccc(NC(=O)Cn2c(=O)c3cc(I)ccc3n(Cc3ccccc3)c2=O)cc1 [Compound 14b]", "measured_result": 6.44}
{"molecule": "C=CCn1c(=O)n(CC(=O)Nc2ccc(C(=O)NN)cc2)c(=O)c2cc(I)ccc21", "measured_result": 5.72}
{"molecule": "C=CCn1c(=O)n(CC(=O)Nc2ccc(C(=O)OC)cc2)c(=O)c2cc(I)ccc21", "measured_result": 5.81}

Proceeding to the next molecule to report its pIC50.
Please supply the value of reported pIC50 for the item `C=CCn1c(=O)n(CC(=O)Nc2ccc(-c3nnc(C)o3)cc2)c(=O)c2cc(I)ccc21`
6.05

====

Listed below: IC50 values for each entry.
# Test system: MCF-7 cell line
# assay_method_text: MTT cytotoxicity assay, MCF-7
# Assay type: cell-based
# experimental_conditions: Homo sapiens, MCF7, read-out: IC50 MCF-7
Return type: number; implicit unit µM.

Please supply the value of reported IC50 for the item `C=CCn1c(=O)n(CC(=O)Nc2ccc(C(=O)NCC)cc2)c(=O)c2cc(I)ccc21`
11.3

Please supply the value of reported IC50 for the item `NNC(=O)c1ccc(NC(=O)Cn2c(=O)c3cc(I)ccc3n(Cc3ccccc3)c2=O)cc1`
8.8

Please supply the value of reported IC50 for the item `C=CCn1c(=O)n(CC(=O)Nc2ccc(C(=O)NC)cc2)c(=O)c2cc(I)ccc21`
13.2

Please supply the value of reported IC50 for the item `Cc1nnc(-c2ccc(NC(=O)Cn3c(=O)c4cc(I)ccc4n(Cc4ccccc4)c3=O)cc2)o1`
6.85

Please supply the value of reported IC50 for the item `C=CCn1c(=O)n(CC(=O)Nc2ccc(-c3nnc(S)o3)cc2)c(=O)c2cc(I)ccc21`
10.8

Please supply the value of reported IC50 for the item `O=C(Cn1c(=O)c2cc(I)ccc2n(Cc2ccccc2)c1=O)Nc1ccc(-c2nnc(S)o2)cc1`
7.36

Please supply the value of reported IC50 for the item `Cc1cc(C)n(-c2ccc(NC(=O)Cn3c(=O)c4cc(I)ccc4n(Cc4ccccc4)c3=O)cc2)n1`
6.46
